Molecular target: Dual specificity tyrosine-phosphorylation-regulated kinase 2 (Homo sapiens);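 note: values are mean percent inhibition of DYRK2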
Conditions: at 0.1 µM
The label depends only on inhibition: y if it is at least 2%, n if it is smaller.

                               smiles_input  class_assignment
0  Cc1ccc2c(-c3ccnc(Nc4cccc(C(F)(F)F)c4)n3)c(-c3ccccc3)nn2n1                 y
1  Nc1nccc(C#Cc2cncnc2Nc2ccc(OCc3cccc(F)c3)c(Cl)c2)n1                 y
2  COC(=O)c1ccc2c(c1)C(=Cc1cc(Br)c(O)c(Br)c1)C(=O)N2                 y
3  COc1ccc(-c2nn3ncccc3c2-c2ccnc(Nc3cccc(C(F)(F)F)c3)n2)cc1                 n
4  CCS(=O)(=O)c1ccc(OC)c(Nc2ncc(-c3cccc(OC)c3)o2)c1                 y
5  NS(=O)(=O)c1cccc(-c2cc3ccncc3cc2OCc2ccccc2)c1                 y
6  O=C(Nc1ccc(Oc2ccc3[nH]c(NC(=O)c4ccco4)nc3c2)cc1)Nc1cc(C(F)(F)F)ccc1F                 n
7   COc1ccc2ncnc(Nc3ccc(OCc4ccccc4)cc3)c2c1                 n

====

Molecular target: Rho-associated protein kinase 2 (Homo sapiens) (UniProt O75116);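 note: values are averaged inhibition readings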
Sequence (O75116 whole entry, looked up): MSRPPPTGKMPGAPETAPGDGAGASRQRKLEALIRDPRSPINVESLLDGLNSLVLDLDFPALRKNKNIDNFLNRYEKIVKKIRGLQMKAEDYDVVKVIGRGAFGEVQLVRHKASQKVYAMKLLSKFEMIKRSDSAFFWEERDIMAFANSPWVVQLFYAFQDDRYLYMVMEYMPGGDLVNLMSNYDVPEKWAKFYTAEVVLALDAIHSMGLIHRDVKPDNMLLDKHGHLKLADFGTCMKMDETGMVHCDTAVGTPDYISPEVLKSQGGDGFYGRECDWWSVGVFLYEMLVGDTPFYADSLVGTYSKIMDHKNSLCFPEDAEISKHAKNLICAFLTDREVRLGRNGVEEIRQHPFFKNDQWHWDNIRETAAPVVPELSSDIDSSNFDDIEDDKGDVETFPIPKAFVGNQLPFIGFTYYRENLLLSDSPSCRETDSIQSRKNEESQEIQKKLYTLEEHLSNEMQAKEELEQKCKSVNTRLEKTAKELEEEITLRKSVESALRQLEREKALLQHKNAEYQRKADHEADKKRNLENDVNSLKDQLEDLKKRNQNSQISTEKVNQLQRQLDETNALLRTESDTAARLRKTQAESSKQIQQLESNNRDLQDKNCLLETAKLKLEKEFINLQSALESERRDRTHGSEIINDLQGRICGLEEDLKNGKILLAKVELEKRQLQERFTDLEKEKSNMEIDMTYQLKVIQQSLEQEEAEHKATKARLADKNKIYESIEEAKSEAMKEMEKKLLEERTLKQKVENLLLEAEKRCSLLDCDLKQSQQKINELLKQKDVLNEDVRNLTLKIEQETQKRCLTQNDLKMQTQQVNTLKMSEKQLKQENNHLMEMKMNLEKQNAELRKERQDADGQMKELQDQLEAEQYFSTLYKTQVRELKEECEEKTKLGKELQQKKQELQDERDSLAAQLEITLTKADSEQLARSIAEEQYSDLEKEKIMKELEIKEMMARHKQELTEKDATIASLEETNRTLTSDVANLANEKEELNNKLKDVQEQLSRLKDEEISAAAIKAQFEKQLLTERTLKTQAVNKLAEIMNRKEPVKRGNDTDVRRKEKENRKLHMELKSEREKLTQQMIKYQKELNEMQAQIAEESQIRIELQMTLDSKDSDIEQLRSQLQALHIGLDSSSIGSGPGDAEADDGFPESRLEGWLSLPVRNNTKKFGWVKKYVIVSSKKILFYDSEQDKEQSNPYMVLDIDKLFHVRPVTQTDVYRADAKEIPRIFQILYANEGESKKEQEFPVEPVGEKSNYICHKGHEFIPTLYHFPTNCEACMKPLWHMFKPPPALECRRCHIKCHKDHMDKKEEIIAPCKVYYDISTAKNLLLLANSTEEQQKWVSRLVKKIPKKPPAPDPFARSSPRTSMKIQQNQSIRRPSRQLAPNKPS
Conditions: at 0.1 µM
readout: inhibition (%)

>>> df
                                    compound  unit_of_measurement  data_value
 0  Cc1ccc2c(-c3ccnc(Nc4cccc(C(F)(F)F)c4)n3)c(-c3ccccc3)nn2n1                    %        3.31
 1  O=C1Nc2ccccc2/C1=C/Nc1ccc2[nH]c(=O)[nH]c2c1                    %        3.76
 2  Nc1nccc(C#Cc2cncnc2Nc2ccc(OCc3cccc(F)c3)c(Cl)c2)n1                    %        2.53
 3       COc1cc2ncnc(Nc3ccc(C)c(O)c3)c2cc1OC                    %        3.05
 4  CN(c1ccc(NC(=O)Nc2ccc(OC(F)(F)F)cc2)cc1)c1ccnc(Nc2cccc(S(N)(=O)=O)c2)n1                    %       -0.23
 5  Nc1nccc(-c2c(-c3ccc(F)cc3)ncn2CCCN2CCOCC2)n1                    %        4.99
 6  NC(=O)c1sc(-n2cnc3ccccc32)cc1OCc1ccccc1Br                    %        2.13
 7   Cc1ccc(O)cc1Nc1ccnc2ccc(S(C)(=O)=O)cc12                    %        4.28
 8     COc1cc(/C=N/Nc2ncnc3c2cnn3C(C)C)ccc1O                    %        0.86
 9  CCCN1CCCC(c2ccc(Nc3nc(Nc4cc(F)ccc4C(N)=O)c4cc[nH]c4n3)c(OC)c2)C1 (stereo not given)                    %        27.2
10   Cc1ccc(C(=O)NC2CC2)cc1-c1ccc2[nH]ncc2c1                    %        0.52
11  O=C(Nc1ccc(Oc2ccc3[nH]c(NC(=O)c4ccco4)nc3c2)cc1)Nc1cc(C(F)(F)F)ccc1F                    %        4.21
12  C[C@@H](Oc1cc(-n2cnc3ccc(OC[C@@H](O)CO)cc32)sc1C(N)=O)c1ccccc1Cl                    %       -0.36
13  CS(=O)(=O)Nc1cccc(-c2ccc3c(NC(=O)C4CC4)n[nH]c3c2)c1                    %        0.82
14  Cc1cc(Cl)cc2c1NC(=O)C2=NNc1ccc(S(N)(=O)=O)cc1                    %        2.77
15    N#Cc1cccc(Nc2nccc(-c3cnn4ncccc34)n2)c1                    %        3.28
16  Nc1nccc(-c2c(-c3ccc(F)cc3)nn3cc(C(F)(F)F)ccc23)n1                    %       -1.57
17  COc1cc(Nc2nccc(-c3cnn4ncccc34)n2)cc(OC)c1                    %        2.33
18  COC(=O)Nc1nc2cc(Oc3ccc(NC(=O)Nc4cccc(Br)c4)cc3)ccc2[nH]1                    %        3.44
19  Cc1ccc(Nc2ccnc(Nc3cccc(C(N)=O)c3)n2)cc1O                    %        4.11

====

Biological target: Serine/threonine-protein kinase Nek1 (Homo sapiens)
Settings: at 1 µM
Description: GSK_PKIS: NEK1 mean inhibition at 1 uM [Nanosyn]
readout: inhibition (%)

                                smiles_input     readout  data_value
 0  CS(=O)(=O)Nc1cccc(-c2ccc3c(NC(=O)C4CC4)n[nH]c3c2)c1  inhibition        1.07
 1  Nc1nccc(-c2c(-c3ccc(F)cc3)ncn2CCCN2CCOCC2)n1  inhibition        3.63
 2  Cc1cc(-c2ccccn2)cc(C)c1/C=C/c1cncc(-c2nn[nH]n2)c1  inhibition        2.75
 3  Cc1ccc2c(c1)/C(=N/Nc1ccc(S(N)(=O)=O)cc1)C(=O)N2  inhibition        1.65
 4  C[C@@H](Oc1cc(-n2cnc3ccc(OCC4CCN(C)CC4)cc32)sc1C(N)=O)c1ccccc1C(F)(F)F  inhibition        60.5
 5  O=C1Nc2ccc(-c3cccnc3)cc2C1=Cc1cc(Br)c(O)c(Br)c1  inhibition        0.46
 6  CCn1c(-c2nonc2N)nc2c(C#CC(C)(C)O)nc(OCCNC)cc21  inhibition        2.74
 7    N#Cc1cccc(Nc2nccc(-c3cnn4ncccc34)n2)c1  inhibition        10.9
 8  CC(C)c1ccc2c(c1)NC(=O)/C2=N/Nc1ccc(S(N)(=O)=O)cc1  inhibition       -0.15
 9  CC(C)c1ccc(Nc2nccc(-c3cnn4ncccc34)n2)cc1  inhibition        13.5
10  CN1CCN(C(=O)c2ccc(NC(=O)Nc3ccc(N(C)c4ccnc(Nc5ccc(CS(C)(=O)=O)cc5)n4)cc3)cc2)CC1  inhibition        29.1
11  CN(c1ccc(NC(=O)Nc2ccc(OC(F)(F)F)cc2)cc1)c1ccnc(Nc2cccc(S(N)(=O)=O)c2)n1  inhibition        2.63

====

Biological target: Tyrosine-protein kinase Yes (Homo sapiens);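 note: mean inhibition of YES, from the GSK PKIS dataset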
Settings: at 0.1 µM
readout: inhibition (%)

In [3]: df
Out[3]:
                                smiles_input  data_value
 0     COc1cc(/C=N/Nc2ncnc3c2cnn3C(C)C)ccc1O        11.9
 1   Cc1ccc(O)cc1Nc1ccnc2ccc(S(C)(=O)=O)cc12        89.3
 2   COc1ccc2ncnc(Nc3ccc(OCc4ccccc4)cc3)c2c1        5.76
 3             CCOc1nccc2c1nc(-c1nonc1N)n2CC        2.27
 4  Nc1ccc(C#Cc2cncnc2Nc2ccc(OCc3cccc(F)c3)c(Cl)c2)cc1        1.94
 5  Nc1nccc(C#Cc2cncnc2Nc2ccc(OCc3cccc(F)c3)c(Cl)c2)n1       -0.62
 6  NS(=O)(=O)c1cccc(Nc2cc(-c3ccc(F)cc3)n[nH]2)c1        2.67
 7   NC(=O)c1cccc(Nc2nccc(Nc3cccc(F)c3)n2)c1         4.5
 8  CN(C)C(=O)O[C@H]1CN[C@H](C#Cc2cc3ncnc(Nc4ccc(OCc5cccc(F)c5)c(Cl)c4)c3s2)C1        1.37
 9  COc1cc2ncnc(Nc3ccc4c(cnn4Cc4ccccc4)c3)c2cc1OC        39.4
10  CN(C)C(=O)O[C@@H]1CN[C@@H](C#Cc2cc3ncnc(Nc4ccc(OCc5cccc(F)c5)c(Cl)c4)c3s2)C1        3.49
11  CN(C)c1cc2c(Nc3ccc4c(cnn4Cc4ccccc4)c3)ncnc2cn1        13.5
12  Cc1ccc(Nc2ccnc(Nc3cccc(C(N)=O)c3)n2)cc1O        33.5
13  CCS(=O)(=O)c1ccc(OC)c(Nc2ncc(-c3cccc(OC)c3)o2)c1        34.5
14  CN1CCN(C(=O)c2ccc(NC(=O)Nc3ccc(N(C)c4ccnc(Nc5ccc(CS(C)(=O)=O)cc5)n4)cc3)cc2)CC1        2.29
15    N#Cc1cccc(Nc2nccc(-c3cnn4ncccc34)n2)c1        5.64
16  O=C(Nc1ccc(Oc2ccc3[nH]c(NC(=O)c4ccco4)nc3c2)cc1)Nc1cc(C(F)(F)F)ccc1F        0.93
17  COC(=O)Nc1nc2cc(Oc3ccc(NC(=O)Nc4cccc(Br)c4)cc3)ccc2[nH]1         4.4
18  Cc1cc(-c2ccccn2)cc(C)c1/C=C/c1cncc(-c2nn[nH]n2)c1        1.13
19  C[C@@H](Oc1cc(-n2cnc3ccc(OC[C@@H](O)CO)cc32)sc1C(N)=O)c1ccccc1Cl       -2.39
20   Cc1ccc(C(=O)NC2CC2)cc1-c1ccc2[nH]ncc2c1       -1.92
21     COC(=O)c1cncc(/C=C/c2c(C)cc(O)cc2C)c1        4.43
22  Oc1cccc(-c2nc(-c3ccccc3)[nH]c2-c2ccncc2)c1        4.12
23  OCc1ccc(-c2nc(-c3ccccn3)c(-c3ccc4c(c3)OCO4)[nH]2)cc1        1.58
24  NS(=O)(=O)c1ccc(N/N=C2\C(=O)Nc3ccc(Cl)cc32)cc1        1.72
25  NC(=O)c1sc(-n2cnc3ccccc32)cc1OCc1ccccc1Br        2.41
26  O=C1Nc2ccccc2/C1=C/Nc1ccc2[nH]c(=O)[nH]c2c1        6.92
27  COc1cccc(-n2nc(C)c3c(N/N=C(\C)c4ccncc4)ncnc32)c1        1.18
28  Cc1cc(Cl)cc2c1NC(=O)C2=NNc1ccc(S(N)(=O)=O)cc1        0.95
